Species: Rattus norvegicus
METHOD NOTES: DrugMatrix - Regimen: Daily Repeat
Assay type: toxicity, organism-based, Sprague-Dawley
Parameters: regimen Daily Repeat, gender Male, age 6-8 weeks
CONDITION CONTEXT: in vivo, ip, 10 mg/kg, 120 h, tissue Blood, route intraperitoneal, dose level High, time 5 day, vehicle 100 % SALINE
RECORDED METRIC: ABSOLUTE MONOCYTE

COBALTOUS CHLORIDE ... 210 cells/µL

* * *

Species: Rattus norvegicus
METHOD NOTES: DrugMatrix - Regimen: Daily Repeat
Assay type: toxicity, organism-based, Sprague-Dawley
Parameters: regimen Daily Repeat, gender Male, age 6-8 weeks
CONDITION CONTEXT: in vivo, iv, 0 mg/kg, 72 h, tissue Plasma, dose level Control, time 3 day, vehicle 100 % SALINE
RECORDED METRIC: ALBUMIN (G/DL)

COc1cccc2c1C(=O)c1c(O)c3c(c(O)c1C2=O)C[C@@](O)(C(C)=O)C[C@@H]3O[C@H]1C[C@H](N)[C@H](O)[C@H](C)O1 ... 4.22
C[N+](C)(C)CCOC(=O)CCC(=O)OCC[N+](C)(C)C.[Cl-].[Cl-] [SUCCINYLCHOLINE CHLORIDE] ... 4.37
O=C(O)P(=O)(O)O ... 4.08
N=C(N)c1ccc(OCCCCCOc2ccc(C(=N)N)cc2)cc1 ... 4.37
O=c1[nH]c(=O)n([C@H]2C[C@H](O)[C@@H](CO)O2)cc1F ... 4.08

* * *

Organism: Rattus norvegicus
METHOD NOTES: DrugMatrix - Regimen: Daily Repeat
Type: toxicity, organism-based, Sprague-Dawley
Parameters: regimen Daily Repeat, gender Male, age 6-8 weeks
CONDITION CONTEXT: in vivo, po, 0 mg/kg, 72 h, tissue Blood, route oral GAVAGE, dose level Control, time 3 day, vehicle 100 % WATER
RECORDED METRIC: NEUTROPHIL

O=c1[nH]c(=O)n(C2CCCO2)cc1F (stereo not given) ... 8.17%
CCN(CC)CCNC(=O)c1ccc(N)cc1 [PROCAINAMIDE] ... 15%
CN(C)CCC=C1c2ccccc2CCc2ccccc21 ... 6.5%
NC(=O)c1cccnc1 [NIACINAMIDE] ... 10.5%
CCCC(C)C1(CC)C(=O)NC(=O)NC1=O (stereo not given) ... 8%
CCN(CC)CCOC(=O)C1(C2CCCCC2)CCCCC1 ... 14.5%
CCN(C(C)=O)c1cccc(-c2ccnc3c(C#N)cnn23)c1 ... 6.5%
CNC1=Nc2ccc(Cl)cc2C(c2ccccc2)=[N+]([O-])C1 [CHLORDIAZEPOXIDE] ... 7.17%
CN(C)C(=O)Oc1cccc([N+](C)(C)C)c1.[Br-] [NEOSTIGMINE BROMIDE] ... 8%
NC12CC3CC(CC(C3)C1)C2 ... 6.5%

* * *

Entries and their SODIUM
Organism: Rattus norvegicus
METHOD NOTES: DrugMatrix - Regimen: Daily Repeat
Type: toxicity, organism-based, Sprague-Dawley
Parameters: regimen Daily Repeat, gender Male, age 6-8 weeks
CONDITION CONTEXT: in vivo, po, 0 mg/kg, 72 h, tissue Plasma, route oral GAVAGE, dose level Control, time 3 day, […]
RECORDED METRIC: SODIUM (MEQ/L)

Cc1ccc(C)c(OCCCC(C)(C)C(=O)O)c1 [GEMFIBROZIL] ... 142.22
CC(=O)Oc1ccccc1C(=O)O [ASPIRIN] ... 144.12
CC(C)c1c(C(=O)Nc2ccccc2)c(-c2ccccc2)c(-c2ccc(F)cc2)n1CC[C@@H](O)C[C@@H](O)CC(=O)O [ATORVASTATIN] ... 142.92
ClC(Cl)(Cl)Cl [CARBON TETRACHLORIDE] ... 142.05
O=c1c(-c2ccc(O)cc2)coc2cc(O)cc(O)c12 [GENISTEIN] ... 142.92
CCCCC(=O)N(Cc1ccc(-c2ccccc2-c2nnn[nH]2)cc1)[C@H](C(=O)O)C(C)C ... 137.67
c1ccoc1 [FURAN] ... 151.17
CCc1ccc(CCOc2ccc(CC3SC(=O)NC3=O)cc2)nc1 (centres undefined) [PIOGLITAZONE] ... 146.7
CS(=O)(=O)Nc1ccc([N+](=O)[O-])cc1Oc1ccccc1 [NIMESULIDE] ... 142.83

* * *

Species: Rattus norvegicus
METHOD NOTES: DrugMatrix - Regimen: Daily Repeat
Format: toxicity, organism-based, Sprague-Dawley
Design: regimen Daily Repeat, gender Male, age 6-8 weeks
CONDITION CONTEXT: in vivo, po, 0 mg/kg, 72 h, tissue Blood, route oral GAVAGE, dose level Control, time 3 day, […]
Entries and their HEMOGLOBIN
RECORDED METRIC: HEMOGLOBIN (G/DL)

O=c1c(-c2ccc(O)cc2)coc2cc(O)cc(O)c12 ... 12.87
CCc1ccc(CCOc2ccc(CC3SC(=O)NC3=O)cc2)nc1 (stereo unspecified) ... 13.17
CCCCC(=O)N(Cc1ccc(-c2ccccc2-c2nnn[nH]2)cc1)[C@H](C(=O)O)C(C)C ... 13.23
Cc1ccc(C)c(OCCCC(C)(C)C(=O)O)c1 ... 12.95
c1ccoc1 ... 14.12
ClC(Cl)(Cl)Cl [CARBON TETRACHLORIDE] ... 12.77

* * *

Species: Rattus norvegicus
METHOD NOTES: DrugMatrix - Regimen: Daily Repeat
Type: toxicity, organism-based, Sprague-Dawley
Design: regimen Daily Repeat, gender Male, age 6-8 weeks
CONDITION CONTEXT: in vivo, po, 0 mg/kg, 120 h, tissue Plasma, route oral GAVAGE, dose level Control, time 5 day, vehicle .5 % CMC
RECORDED METRIC: CHOLESTEROL (mg/dL)

C#C[C@]1(O)CC[C@H]2[C@@H]3CCC4=CC(=O)CC[C@]4(C)[C@H]3CC[C@@]21C [ETHISTERONE] ... 61
NC(=O)N1c2ccccc2CC(=O)c2ccccc21 [OXCARBAZEPINE] ... 71
CN(C)CCN(Cc1cccs1)c1ccccn1 ... 73
C[C@@H]1O[C@@H](O[C@H]2C[C@@H](O)[C@]3(CO)[C@H]4[C@H](O)C[C@]5(C)[C@@H](C6=CC(=O)OC6)CC[C@]5(O)[C@@H]4CC[C@]3(O)C2)[C@H](O)[C@H](O)[C@H]1O [OUABAIN] ... 67
C[C@H]1[C@H](NC(=O)/C(=N\OC(C)(C)C(=O)O)c2csc(N)n2)C(=O)N1S(=O)(=O)O [AZTREONAM] ... 71.33
CN(C)C(=O)C(CCN1CCC(O)(c2ccc(Cl)cc2)CC1)(c1ccccc1)c1ccccc1 [LOPERAMIDE] ... 71.33
CCCCC1=NC2(CCCC2)C(=O)N1Cc1ccc(-c2ccccc2-c2nnn[nH]2)cc1 [IRBESARTAN] ... 70.67
CCOc1nc2cccc(C(=O)O)c2n1Cc1ccc(-c2ccccc2-c2nnn[nH]2)cc1 ... 63.83
CCn1cc(C(=O)O)c(=O)c2cc(F)c(N3CCNC(C)C3)c(F)c21 (centres undefined) [LOMEFLOXACIN] ... 74.67

* * *

Entries and their ALANINE AMINOTRANSFERASE
Species on record: Rattus norvegicus
METHOD NOTES: DrugMatrix - Regimen: Daily Repeat
Format: toxicity, organism-based, Sprague-Dawley
Parameters: regimen Daily Repeat, gender Male, age 6-8 weeks
CONDITION CONTEXT: in vivo, iv, 0 mg/kg, 72 h, tissue Plasma, dose level Control, time 3 day, vehicle 100 % SALINE
RECORDED METRIC: ALANINE AMINOTRANSFERASE (u/L)

O=C(O)P(=O)(O)O ... 39.67
C[N+](C)(C)CCOC(=O)CCC(=O)OCC[N+](C)(C)C.[Cl-].[Cl-] [SUCCINYLCHOLINE CHLORIDE] ... 68.5
N=C(N)c1ccc(OCCCCCOc2ccc(C(=N)N)cc2)cc1 ... 68.5
O=c1[nH]c(=O)n([C@H]2C[C@H](O)[C@@H](CO)O2)cc1F ... 64.83
COc1cccc2c1C(=O)c1c(O)c3c(c(O)c1C2=O)C[C@@](O)(C(C)=O)C[C@@H]3O[C@H]1C[C@H](N)[C@H](O)[C@H](C)O1 ... 55.5

* * *

Species: Rattus norvegicus
METHOD NOTES: DrugMatrix - Regimen: Daily Repeat
Assay type: toxicity, organism-based, Sprague-Dawley
Design: regimen Daily Repeat, gender Male, age 6-8 weeks
CONDITION CONTEXT: in vivo, po, 0 mg/kg, 72 h, tissue Plasma, route oral GAVAGE, dose level Control, time 3 day, […]
Hi! Just check whether ALKALINE PHOSPHATASE is below 400 u/L. Below gives TRUE, equal or above gives FALSE.

CCCCC(=O)N(Cc1ccc(-c2ccccc2-c2nnn[nH]2)cc1)[C@H](C(=O)O)C(C)C ... TRUE
CC(=O)Oc1ccccc1C(=O)O ... FALSE
CS(=O)(=O)Nc1ccc([N+](=O)[O-])cc1Oc1ccccc1 [NIMESULIDE] ... FALSE
ClC(Cl)(Cl)Cl [CARBON TETRACHLORIDE] ... TRUE
c1ccoc1 ... FALSE
CCc1ccc(CCOc2ccc(CC3SC(=O)NC3=O)cc2)nc1 (centres undefined) ... TRUE
Cc1ccc(C)c(OCCCC(C)(C)C(=O)O)c1 ... TRUE
O=c1c(-c2ccc(O)cc2)coc2cc(O)cc(O)c12 ... TRUE
CC(C)c1c(C(=O)Nc2ccccc2)c(-c2ccccc2)c(-c2ccc(F)cc2)n1CC[C@@H](O)C[C@@H](O)CC(=O)O ... TRUE
